Record form. Attribute: GI50. Fill in for each entry.
- System: MDA-MB-231
- experiment: NCI tumour cell line growth inhibition, 48 h
The source made the active and inactive calls. No stated cut-off is given here; in the data, active = GI50 up to about 1.1 µM and inactive = higher.

Here is how some compounds turned out for GI50.
# compound, GI50
measured = [
    ("Cn1c(S)nc2c(Cl)cc(Cl)cc2c1=O", "> 100 µM (inactive)"),
    ("Clc1ccc(C2=C(c3ccccc3)C(c3ccc(Cl)cc3)N3C(=N[C@H]4CCCC[C@@H]43)N2)cc1 (stereo partly specified)", "14.9 µM (inactive)"),
    ("CNn1c(C)n[nH]c1=O", "> 100 µM (inactive)"),
    ("FC1CCN(C2(c3cccs3)CCCCC2)CC1", "> 100 µM (inactive)"),
    ("O=C1CCCc2ccc3c(c21)CC1(Cc2ccccc2C1)C3", "27.5 µM (inactive)"),
]

We next turn to a different compound, shown below.
Tell me reported GI50 for O=c1cc(NNc2ccccc2)[nH]c(=O)[nH]1 , tested with MDA-MB-231.
15.8 µM (inactive)

----------
- System: NCI/ADR-RES
- experiment: NCI tumour cell line growth inhibition, 48 h
Calls of active or inactive are those of the source. No stated cut-off is given here; in the data, active = GI50 up to about 1.1 µM and inactive = higher.
Hi there, use one of these labels in your reply, thanks! Y for active, N for inactive

Study these solved cases before continuing.
# compound, labelValue
measured = [
    ("Cc1ccc(C(=O)Cn2c(C(=O)/C=C/c3cccs3)nc3ccccc32)cc1", "N"),
    ("COc1c2nc(CCl)n(C)c(=O)c2c(OC)c2c(=O)n(C)c(CCl)nc12", "N"),
    ("Cc1cccc(/C=N/NC(=S)N(C)CCc2ccccn2)n1", "Y"),
    ("Nc1ccn(C2OC(COC(=O)C34CC5CC(CC(C5)C3)C4)C(O)C2O)c(=O)n1 (stereo not given)", "N"),
    ("C[C@@]12CCC(=O)C=C1CC[C@H]1C2=CC[C@]2(C)C1CC[C@@]2(C)O (stereo not given in full)", "N"),
]

In this assay, the call recorded for CC(=O)OC1COC(n2c(N)c(C#N)c(C)c(C#N)c2=S)C(OC(C)=O)C1OC(C)=O (stereo not given) was what?
N

In this assay, the call recorded for CCCCCCCCCCCCCCCCCCNC(=S)N/C=C1/C(=O)C=C(C)OC1=O was what?
N

In this assay, the call recorded for CCCCCCNC(=O)C1=C(C)NC(C)=C(C(=O)NCCCCCC)C1 was what?
N

In this assay, the call recorded for Nc1nc(N)nc(CCCc2nc(N)nc(N)n2)n1 was what?
N

In this assay, the call recorded for O=c1c2ccccc2[nH]c(=S)n1-c1ccc(/N=N/c2cccc3cc(O)ccc23)cc1 was what?
N

----------
- Tested on: NCI-H522
- experiment: NCI tumour cell line growth inhibition, 48 h
The source made the active and inactive calls. Rule as the data show it: active = GI50 up to about 1.1 µM and inactive = higher.
metricName: GI50

# compound, GI50
measured = [
    ("CN(C)CC(/C(Cc1ccccc1)=N\\NC(=O)C[n+]1ccccc1)c1ccccc1 (stereo not drawn)", "80.9 µM (inactive)"),
    ("CCOC(=O)/C(C(N)=O)=C(O)/C(O)=C/C(=O)c1ccc(Cl)cc1", "16.2 µM (inactive)"),
    ("COc1cc(N(CCC#N)CCC#N)ccc1C(/N=N/c1ccccc1C)=N\\NC(=O)c1ccc(C)cc1", "25.2 µM (inactive)"),
]

Batch: GI50 for all items listed.
1. O=C(O)c1ccccc1-c1ccccc1C(=O)Nc1ccc2c(c1)Cc1cc(F)ccc1-2
2. CC(C)(C)c1cc2c(O)c(c1)Cc1cc(C(C#N)(Cc3ccc4ccccc4c3)Cc3ccc4ccccc4c3)cc(c1O)Cc1cc(C(C)(C)C)cc(c1O)Cc1cc(C(C#N)(Cc3ccc4ccccc4c3)Cc3ccc4ccccc4c3)cc(c1O)C2
3. CC(C)(/N=N/C(C)(C)C(=O)NCCO)C(=O)NCCO
4. O=c1c2ccccc2[nH]c(=S)n1-c1ccc(/N=N/c2cccc3cc(O)ccc23)cc1

1. 24.3 µM (inactive)
2. > 100 µM (inactive)
3. 39.7 µM (inactive)
4. > 100 µM (inactive)

Look up GI50: CC(=O)OC1COC(n2c(N)c(C#N)c(C)c(C#N)c2=S)C(OC(C)=O)C1OC(C)=O (stereo not drawn)
> 100 µM (inactive)

----------
- Test system: OVCAR-5
- experiment: NCI tumour cell line growth inhibition, 48 h
Active and inactive are the calls of the source. No stated cut-off is given here; in the data, active = GI50 up to about 1.1 µM and inactive = higher.
metricName: GI50

Here is how some compounds turned out for GI50.
# compound, reportedValue
data = [
    ("CC1(C)CC(=O)C2(CC(CSc3ccccc3)C(CS(=O)(=O)c3ccccc3)C2)C(=O)C1 (stereo not drawn)", "> 100 µM (inactive)"),
    ("CCOC(=O)/C(C(N)=O)=C(O)/C(O)=C/C(=O)c1ccc(Cl)cc1", "23.5 µM (inactive)"),
    ("CCOC(=O)C1C(=O)CN2CCc3c([nH]c4ccccc34)C12C(=O)OCC (stereo not drawn)", "> 100 µM (inactive)"),
    ("Cc1ccc2c(O)cc(-c3ccccc3)nc2n1", "2.56 µM (inactive)"),
    ("CCOc1ccccc1NC(=O)C(=O)CC(=O)C1=C(C)Nc2ccccc2S1", "> 100 µM (inactive)"),
]

Batch: GI50 for all items listed.
1. NC(=S)N/N=C/C(O[C@@H](/C=N/NC(N)=S)CO)n1cnc2c(N)ncnc21 (stereo partly drawn)
2. COC(=O)[C@@]1(Cc2ccc(OC(C)=O)cc2)Cc2cc3ccccc3n2N1
3. Clc1ccc(C2=C(c3ccccc3)C(c3ccc(Cl)cc3)N3C(=N[C@H]4CCCC[C@@H]43)N2)cc1 (stereo partly drawn)
4. Cc1cc(NS(=O)(=O)c2ccc(Nc3c4ccccc4nc4c(C(=O)NCCO)cccc34)cc2)no1
5. COC(=O)C(=O)C(C(=O)OC)C(=O)C(=O)Nc1cc(Cl)c(Cl)cc1Cl (stereo not drawn)
6. Cc1ccc(Nc2nnc(-c3ccc4c(c3)OCO4)o2)c(C)c1

["> 100 µM (inactive)", "94.4 µM (inactive)", "16.3 µM (inactive)", "13.3 µM (inactive)", "> 100 µM (inactive)", "> 100 µM (inactive)"]

Batch: GI50 for all items listed.
1. CCCCCCNC(=O)C1=C(C)NC(C)=C(C(=O)NCCCCCC)C1
2. COc1cc(CNNC(N)=S)cc(OC)c1OC
3. CCOC(=O)c1nc2ccccc2n(CC)c1=O
4. Nc1ccc(C(=O)Nn2c(-c3ccccc3)nc3ccccc3c2=O)cc1
5. CCOC(=O)/C=C(/C(=O)OCC)n1ccc(=O)n(CC(=O)OCC)c1=O
6. CCOC(=O)c1nc2ccc(C(F)(F)F)cc2nc1NCc1ccc(Cl)c(Cl)c1
7. CCOC(=O)/C=C(\C(=O)OCC)n1cc(C)c(=O)n(Cc2cnnn2CCCCOC(C)=O)c1=O

["> 100 µM (inactive)", "95.1 µM (inactive)", "> 100 µM (inactive)", "> 100 µM (inactive)", "1.67 µM (inactive)", "> 100 µM (inactive)", "17.4 µM (inactive)"]

Batch: GI50 for all items listed.
1. Cc1ccc2c(=O)c(C(=O)Nn3c(C)csc3=S)c[nH]c2n1
2. C=C(Cl)C(=C)CCC(Cl)C(C)C (stereo not drawn)
3. O=C1C=CC(=O)c2c(O)nc(CBr)nc21
4. Nc1nc2cc(Cl)ccc2n1N
5. O=C1C(=O)N(c2ccc(Cl)cc2Cl)C(=O)C(=O)C1c1nc2ccccc2s1
6. CN(C(=O)Cc1cc(Cl)c(Cl)cc1NC(=O)CCCN)[C@H]1CCCC[C@@H]1N1CCCC1
7. CCCC(=O)Oc1ccc2c(C)cc(=O)oc2c1OC(=O)CCC

["> 100 µM (inactive)", "> 100 µM (inactive)", "> 100 µM (inactive)", "> 100 µM (inactive)", "> 100 µM (inactive)", "37.8 µM (inactive)", "> 100 µM (inactive)"]

Batch: GI50 for all items listed.
1. CN(C)C(=O)/N=c1\ss/c(=N\C(=S)N(C)C)n1-c1ccccc1
2. OCCOCCN1CCN(c2nc(N3CCCC3)c3nc(Cl)c(NCc4ccccc4)nc3n2)CC1
3. COC(=O)C1CCC(=O)N1C(c1ccc2c(c1)OCO2)c1cc(OC)c(OC)c(OC)c1 (stereo not drawn)

1. > 90.2 µM (inactive)
2. 15.1 µM (inactive)
3. > 100 µM (inactive)

----------
- System: CAKI-1
- experiment: NCI tumour cell line growth inhibition, 48 h
Activity calls are given as the source filed them. Rule as the data show it: active = GI50 up to about 1.1 µM and inactive = higher.
Hi there, use one of these labels in your reply, thanks! active, inactive

Study these solved cases before continuing.
# molecule, labelValue
rows = [
    ("O=C1OC[C@@H]2Cc3c([nH]c4ccccc34)[C@@H](c3ccc(O)cc3)N12", "inactive"),
    ("CC(C)(Oc1ccc2c(=O)cc(-c3ccc(Cl)cc3)oc2c1)C(=O)Nc1c(Cl)cccc1Cl", "inactive"),
    ("Cc1ccc(NC(=O)/C(=N\\Nc2ccc([N+](=O)[O-])cc2[N+](=O)[O-])C2C(=O)NC(=O)NC2=O)cc1", "inactive"),
    ("O=c1[nH]c2cc(C(F)(F)F)ccc2nc1C(F)(F)F", "inactive"),
    ("NC(=S)N/N=C/C(O[C@@H](/C=N/NC(N)=S)CO)n1cnc2c(N)ncnc21 (some centres not stated)", "inactive"),
    ("COc1ccc2[nH]c3c(C)c4ccnc(NCCCN(C)CCCNc5ccc6ncn7c8ccccc8c(=O)c5c67)c4c(C)c3c2c1", "active"),
    ("CC(=O)NCCCCN(CCCNC(C)=O)C(=O)OCc1ccccc1", "inactive"),
    ("O=C1NC(NNc2ccccc2)=N/C1=C\\c1ccccc1O", "inactive"),
]

In this assay, the call recorded for CN(C)c1ccc2c3c(c(=O)oc2c1)CCC3 was what?
inactive

In this assay, the call recorded for Cc1ccc([N+](=O)[O-])cc1S(=O)(=O)Nc1ccc(C(=O)/C=C/c2ccccc2)cc1 was what?
inactive

In this assay, the call recorded for CNn1c(C)n[nH]c1=O was what?
inactive

In this assay, the call recorded for O=C1C=CC(=O)c2c(O)nc(CBr)nc21 was what?
inactive

In this assay, the call recorded for C=C(Cl)C(=C)CCC(Cl)C(C)C (configuration not stated) was what?
inactive
